The entries below come with measured melting point values attached.
READOUT_LABEL: melting point

INSERT INTO results (input_smiles, result) VALUES
  ('Cc1nc(-n2ccc(OCc3ccccc3)cc2=O)[nH]c1C(=O)NCc1cccnc1', '203 to 204 °C'),
  ('Cc1ccn(-c2nc(C)c(C(=O)NCc3ccccc3)s2)c(=O)c1', '145 to 147 °C'),
  ('Cc1nc(-n2ccccc2=O)sc1C(=O)NCc1ccc(F)cc1', '170 to 172 °C'),
  ('Cc1nc(-n2ccc(O)cc2=O)sc1C(=O)NCCc1ccc(F)cc1', '225 to 227 °C'),
  ('Cc1nc(-n2ccc(OCc3ccc(C(F)(F)F)o3)cc2=O)sc1C(=O)NCc1ccccc1', '214 to 216 °C'),
  ('Cc1nc(-n2ccc(O)cc2=O)sc1C(=O)NCc1ccncc1', '275 to 278 °C'),
  ('Cc1nc(-n2ccc(OCc3ccccc3)cc2=O)[nH]c1C(=O)NCc1ccccc1', '183 to 184 °C'),
  ('Cc1nc(-n2ccc(O)cc2=O)sc1C(=O)NCc1ccc(F)c(F)c1', '294 to 296 °C'),
  ('Cc1cc(-n2ccc(OCc3ccc(F)cc3)cc2=O)sc1C(=O)NCc1ccccc1', '195 to 197 °C'),
  ('COc1ccn(-c2nc(C)c(C(=O)NCc3ccc[n+]([O-])c3)s2)c(=O)c1', '255 to 257 °C'),
  ('Cc1nc(-n2ccc(OCc3ccc(F)cc3)cc2=O)sc1C(=O)NCc1ccccc1', '243 to 245 °C'),
  ('Cc1nc(-n2ccc3c(O)cccc3c2=O)sc1C(=O)NCc1ccccc1', '218 to 221 °C'),
  ('Cc1cc(-n2ccc(OCc3ccccc3)cc2=O)sc1C(=O)NCc1cccnc1', '165 to 167 °C'),
  ('Cc1c(C(=O)NCc2ccccc2)nc(-n2ccc(OCc3ccccc3)cc2=O)n1C', '190 to 191 °C'),
  ('CCOC(=O)c1sc(-n2ccc(OC)cc2=O)nc1C', '163 to 165 °C'),
  ('Cc1nc(-n2ccc(OCc3ccc(F)cc3)cc2=O)sc1C(=O)NCc1ccc(F)cc1', '249 to 251 °C'),
  ('Cc1nc(-n2ccc(N)cc2=O)sc1C(=O)NCc1ccccc1', '171 to 172 °C'),
  ('Cc1nc(-n2ccc(O)cc2=O)sc1C(=O)NCc1ccc(F)cc1', '280 to 282 °C');
